measurement_protocol: qHTS assay to identify small molecule HDAC inhibitors (AID 1259364);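 note: wild-type HCT-116 cells with endogenous class I/II HDAC activity; top concentration of the series differs between compounds; % is set by controls: 0 for no effect and ±100 for the full control effect; nearly all actives have a fitted effect of over 45% in size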
condition_details: HCT-116 HDAC-Glo I/II luminescence, 2 h; series mostly up to 92.4 µM
Source text: U.S. Tox21 Program National Center for Advancing Translational Sciences [NCATS] NIH Chemical Genomics Center [NCGC] U.S. Environmental Protection Agency [EPA] National Institutes of Environmental Health Sciences [NIEHS] National Toxicology Program [NTP] U.S. Food and Drug Administration [FDA] Tox21 Assay Overview: Histone deacetylases (HDACs) are a group of epigenetic enzymes that regulate gene expression by histone deacetylation. […]
Results filed as inconclusive are left out. The source made the active and inactive calls. Calls come from the whole dose curve; as a rule, active = well fitted inhibition curve with a large enough effect in the repeat runs; inconclusive = weak or mixed curves; inactive = flat fitted curve, though single readings scatter.
measured_endpoint: outcome

The examples below pair each entry with its known result.
[
  {
    "given_smiles": "CC1(C)[C@H](C(=O)O[C@H](C#N)c2cccc(Oc3ccccc3)c2)[C@@H]1C=C(Br)Br",
    "outcome": "inactive"
  },
  {
    "given_smiles": "O=C(O)CCCOc1ccc(Cl)cc1Cl",
    "outcome": "inactive"
  },
  {
    "given_smiles": "COc1cc(C[C@@H](C)N)c(OC)cc1Br",
    "outcome": "inactive"
  },
  {
    "given_smiles": "Nc1ccc2c(c1)Cc1ccccc1-2",
    "outcome": "inactive"
  }
]

Per the record, `C=CC(=O)NC(C)(C)CC(C)=O` has outcome of inactive

Per the record, `CC(C)[C@@H](C(=O)O[C@@H](C#N)c1cccc(Oc2ccccc2)c1)c1ccc(Cl)cc1` has outcome of inactive

----------
measurement_protocol: qHTS assay to identify small molecule agonists of the androgen receptor (AR) signaling pathway in the presence of an antagonist - cell viability counter screen (AID 1259379);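 note: MDA-kb2 human breast cancer cells carrying an MMTV luciferase reporter; % is set by controls: 0 for no effect and ±100 for the full control effect; nearly all actives have a fitted effect of over 25% in size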
condition_details: MDA-kb2 viability, CellTiter-Fluor, 16 h; series mostly up to 92.4 µM
Records with an inconclusive call do not appear. Active and inactive are the calls of the source. Calls come from the whole dose curve; as a rule, active = well fitted cell-killing curve with a large enough effect in the repeat runs; inconclusive = weak or mixed curves, or effect the other way; inactive = flat fitted curve, though single readings scatter.
measured_endpoint: activity change, negative = cytotoxicity

The examples below pair each entry with its known result.
[
  {
    "molecule": "CCCCC#N",
    "activity change, negative = cytotoxicity": "inactive"
  },
  {
    "molecule": "O=C(NC(=O)c1cc(F)c(F)cc1Cl)Nc1cc(F)ccc1N1CCC(C(=O)O)CC1",
    "activity change, negative = cytotoxicity": "inactive"
  },
  {
    "molecule": "C[C@@H]1C[C@@H]([C@H](O)CC2CC(=O)NC(=O)C2)C(=O)[C@@H](C)C1",
    "activity change, negative = cytotoxicity": "inactive"
  },
  {
    "molecule": "NCCc1cc(O)c(O)cc1O",
    "activity change, negative = cytotoxicity": "inactive"
  },
  {
    "molecule": "CC(C)c1ccc(NC(=O)N(C)C)cc1",
    "activity change, negative = cytotoxicity": "inactive"
  }
]

Per the record, `Nc1c(Br)cc(Br)c2c1C(=O)c1ccccc1C2=O` has activity change, negative = cytotoxicity of -5.97% [at 19 µM] (inactive)

Per the record, `SCc1ccccc1` has activity change, negative = cytotoxicity of inactive

Per the record, `Cc1ccccc1` has activity change, negative = cytotoxicity of inactive

Per the record, `C=CC(=O)OCC` has activity change, negative = cytotoxicity of inactive

Per the record, `O=C([O-])c1ccccn1.O=C([O-])c1ccccn1.O=C([O-])c1ccccn1.[Cr+3]` has activity change, negative = cytotoxicity of inactive

Per the record, C[N+](C)(C)CC1CO1 (configuration not stated) has activity change, negative = cytotoxicity of inactive

Per the record, `N#CC(C#N)=Cc1ccc(O)c(O)c1` has activity change, negative = cytotoxicity of inactive

Per the record, `CCC1(CC)C(=O)NC(=O)NC1=O` has activity change, negative = cytotoxicity of inactive

Per the record, CCCCC(CC)CO[N+](=O)[O-] (configuration not stated) has activity change, negative = cytotoxicity of inactive

----------
measurement_protocol: qHTS assay to identify small molecule agonists of the TGF-beta/Smad signaling pathway - cell viability counter screen (AID 1346829); note: top concentration of the series differs between compounds; % is set by controls: 0 for no effect and ±100 for the full control effect; nearly all actives have a fitted effect of over 45% in size
condition_details: SBE-bla HEK293T viability, CellTiter-Glo luminescence, 5 h; series mostly up to 76.8 µM
Results filed as inconclusive are left out. Activity calls are given as the source filed them. Calls follow the shape of the dose curve; as a rule, active = well fitted cell-killing curve with a large enough effect in the repeat runs; inconclusive = weak or mixed curves, or effect the other way; inactive = flat fitted curve, though single readings scatter.
measured_endpoint: activity change, negative = cytotoxicity

The examples below pair each entry with its known result.
[
  {
    "compound": "CCC1(CCC(C)C)C(=O)NC(=O)NC1=O",
    "measured_endpoint": "activity change, negative = cytotoxicity",
    "readout_value": "inactive"
  },
  {
    "compound": "COc1cc(CC(C)N)c(OC)cc1Br (centres undefined)",
    "measured_endpoint": "activity change, negative = cytotoxicity",
    "readout_value": "inactive"
  },
  {
    "compound": "OCC1CO1 (centres undefined)",
    "measured_endpoint": "activity change, negative = cytotoxicity",
    "readout_value": "inactive"
  },
  {
    "compound": "COCc1cnc(C2=NC(C)(C(C)C)C(=O)N2)c(C(=O)O)c1 (centres undefined)",
    "measured_endpoint": "activity change, negative = cytotoxicity",
    "readout_value": "inactive"
  },
  {
    "compound": "O=C(O)C(O)C(O)C(=O)O (centres undefined)",
    "measured_endpoint": "activity change, negative = cytotoxicity",
    "readout_value": "inactive"
  },
  {
    "compound": "CC(=O)OC(c1ccccc1)C(Cl)(Cl)Cl (centres undefined)",
    "measured_endpoint": "activity change, negative = cytotoxicity",
    "readout_value": "inactive"
  },
  {
    "compound": "O=C(NCNC(=O)NC1C(=O)NC(=O)N1CO)NC1C(=O)NC(=O)N1CO (centres undefined)",
    "measured_endpoint": "activity change, negative = cytotoxicity",
    "readout_value": "inactive"
  },
  {
    "compound": "SCc1ccccc1",
    "measured_endpoint": "activity change, negative = cytotoxicity",
    "readout_value": "inactive"
  }
]

Per the record, FC(F)OC(F)(F)C(F)Cl (centres undefined) has activity change, negative = cytotoxicity of inactive

Per the record, `O=S(=O)(Cl)Cl` has activity change, negative = cytotoxicity of inactive

Per the record, C[N+](C)(C)CC1CO1 (centres undefined) has activity change, negative = cytotoxicity of inactive

Per the record, CC(Oc1cccc(Cl)c1)C(=O)O (centres undefined) has activity change, negative = cytotoxicity of inactive

Per the record, `CCCC[N+](CCCC)(CCCC)CCCC` has activity change, negative = cytotoxicity of inactive

Per the record, `CN(C)C(=O)Nc1cccc(OC(=O)NC(C)(C)C)c1` has activity change, negative = cytotoxicity of inactive

Per the record, CCCC(C)(COC(N)=O)COC(=O)NC(C)C (centres undefined) has activity change, negative = cytotoxicity of inactive

Per the record, `O=C(N[C@H]1CN2CCC1CC2)c1ccc2c(c1)OCCO2` has activity change, negative = cytotoxicity of inactive

Per the record, `CCCCCCCCCCCCN(C)C` has activity change, negative = cytotoxicity of inactive

Per the record, CC(O)CN1CCN(CC(=O)[O-])CCN(CC(=O)[O-])CCN(CC(=O)[O-])CC1.[Gd+3] (centres undefined) has activity change, negative = cytotoxicity of inactive

Per the record, `C1CS1` has activity change, negative = cytotoxicity of inactive

Per the record, Nc1ccccc1C(=O)OCC(O)CO (centres undefined) has activity change, negative = cytotoxicity of inactive

Per the record, `ClCc1ccccc1Cl` has activity change, negative = cytotoxicity of inactive

Per the record, CCCC[P+](CC)(CCCC)CCCC (tested in a mixture with another compound) has activity change, negative = cytotoxicity of inactive

Per the record, `O=[N+]([O-])c1cc(Cl)c(Cl)cc1Cl` has activity change, negative = cytotoxicity of inactive

Per the record, `CC(=O)NNc1ccccc1` has activity change, negative = cytotoxicity of inactive

----------
measurement_protocol: qHTS assay to identify small molecule antagonists of the constitutive androstane receptor (CAR) signaling pathway - cell viability counter screen (AID 1224837); note: nearly all actives have a fitted effect of over 45% in size
condition_details: HepG2-CYP2B6-hCAR viability, CellTiter-Fluor, 23 h, co-treated with 50 nM CITCO; series mostly up to 92.4 µM
Records with an inconclusive call do not appear. Active and inactive are the calls of the source. Calls follow the shape of the dose curve; as a rule, active = well fitted cell-killing curve with a large enough effect in the repeat runs; inconclusive = weak or mixed curves, or effect the other way; inactive = flat fitted curve, though single readings scatter.
Hi there, use one of these labels in your reply, thanks! active, inactive

Can you look up the reported call for `CCOC(=O)c1cn2nc(OP(=S)(OCC)OCC)cc2nc1C` for me?
inactive

Can you look up the reported call for COCc1cnc(C2=NC(C)(C(C)C)C(=O)N2)c(C(=O)O)c1 (stereo not drawn) for me?
inactive

Can you look up the reported call for CCCCC1C(=O)NC(=O)N(C2CCCCC2)C1=O (stereo not drawn) for me?
inactive

Can you look up the reported call for `CCCBr` for me?
inactive

Can you look up the reported call for `CC(C)c1ccc(OP(=O)(Oc2ccc(C(C)C)cc2)Oc2ccc(C(C)C)cc2)cc1` for me?
inactive

Can you look up the reported call for `Oc1cccc(Cl)c1` for me?
inactive

Can you look up the reported call for `CCC1(CC)C(=O)NC(=O)NC1=O` for me?
inactive

Can you look up the reported call for `CC(=O)NNc1ccccc1` for me?
inactive

Can you look up the reported call for `CC(C)(C)N(NC(=O)c1ccc(Cl)cc1)C(=O)c1ccccc1` for me?
active

Can you look up the reported call for `NP(N)(=O)NC(=O)c1ccc(F)cc1` for me?
inactive

Can you look up the reported call for `C[C@H](N)[C@H](O)c1ccc(O)c(O)c1` for me?
inactive

Can you look up the reported call for `Cc1ncc(C[n+]2csc(CCO)c2C)c(N)n1` for me?
inactive

Can you look up the reported call for `O=[N+]([O-])c1cc(Cl)c(Cl)cc1Cl` for me?
inactive
